target-system: T1, Anti-CD28 Fab (SEQ ID NOs: 696, 697)
T1 construct: In the phage ELISA the Fab was biotinylated and captured on neutravidin coated plates
T1 sequence (VH, as listed by the source, chain 1 of 2): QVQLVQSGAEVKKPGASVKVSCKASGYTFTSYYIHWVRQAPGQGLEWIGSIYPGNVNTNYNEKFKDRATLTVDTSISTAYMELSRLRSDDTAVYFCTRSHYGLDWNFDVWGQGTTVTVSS
T1 sequence (VL, as listed by the source, chain 2 of 2): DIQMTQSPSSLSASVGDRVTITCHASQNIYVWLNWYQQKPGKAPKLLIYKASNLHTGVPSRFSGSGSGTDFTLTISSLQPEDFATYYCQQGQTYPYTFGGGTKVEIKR
assay-overview: phage binding ELISA; biotinylated anti-CD28 Fab captured on neutravidin plate, clonal phage supernatant, anti-M13 HRP detection
What Phage binding ELISA, Anti-CD28 Fab signal was measured for each of the following?
Give only the figure.

Input line: Supply measured Phage binding ELISA, Anti-CD28 Fab signal of YCTGWQVAYMQNCF [Phage-1331 (Peptide-87 library sequence, SEQ ID NO: 1647)] in your reply.
Output line: 0.42

Input line: Supply measured Phage binding ELISA, Anti-CD28 Fab signal of YCAGHLDEYMEKCL [Phage-1332 (Peptide-87 library sequence, SEQ ID NO: 1648)] in your reply.
Output line: 0.4

Input line: Supply measured Phage binding ELISA, Anti-CD28 Fab signal of YCDGHTWMYKQKCL [Phage-1333 (Peptide-87 library sequence, SEQ ID NO: 1649)] in your reply.
Output line: 0.4

Input line: Supply measured Phage binding ELISA, Anti-CD28 Fab signal of YCDGHSQIYMSKCL [Phage-1329 (Peptide-87 library sequence, SEQ ID NO: 1645)] in your reply.
Output line: 0.42

Input line: Supply measured Phage binding ELISA, Anti-CD28 Fab signal of YCAGHASEYLQKCL [Phage-1328 (Peptide-87 library sequence, SEQ ID NO: 1644)] in your reply.
Output line: 0.43

Input line: Supply measured Phage binding ELISA, Anti-CD28 Fab signal of YCDGHLPEYMEKCL [Phage-1327 (Peptide-87 library sequence, SEQ ID NO: 1643)] in your reply.
Output line: 0.43

Input line: Supply measured Phage binding ELISA, Anti-CD28 Fab signal of YCDGHWPGYLWKCL [Phage-1330 (Peptide-87 library sequence, SEQ ID NO: 1646)] in your reply.
Output line: 0.42
